Molecular target: hERG (Homo sapiens)
Sequence (Q12809 whole entry): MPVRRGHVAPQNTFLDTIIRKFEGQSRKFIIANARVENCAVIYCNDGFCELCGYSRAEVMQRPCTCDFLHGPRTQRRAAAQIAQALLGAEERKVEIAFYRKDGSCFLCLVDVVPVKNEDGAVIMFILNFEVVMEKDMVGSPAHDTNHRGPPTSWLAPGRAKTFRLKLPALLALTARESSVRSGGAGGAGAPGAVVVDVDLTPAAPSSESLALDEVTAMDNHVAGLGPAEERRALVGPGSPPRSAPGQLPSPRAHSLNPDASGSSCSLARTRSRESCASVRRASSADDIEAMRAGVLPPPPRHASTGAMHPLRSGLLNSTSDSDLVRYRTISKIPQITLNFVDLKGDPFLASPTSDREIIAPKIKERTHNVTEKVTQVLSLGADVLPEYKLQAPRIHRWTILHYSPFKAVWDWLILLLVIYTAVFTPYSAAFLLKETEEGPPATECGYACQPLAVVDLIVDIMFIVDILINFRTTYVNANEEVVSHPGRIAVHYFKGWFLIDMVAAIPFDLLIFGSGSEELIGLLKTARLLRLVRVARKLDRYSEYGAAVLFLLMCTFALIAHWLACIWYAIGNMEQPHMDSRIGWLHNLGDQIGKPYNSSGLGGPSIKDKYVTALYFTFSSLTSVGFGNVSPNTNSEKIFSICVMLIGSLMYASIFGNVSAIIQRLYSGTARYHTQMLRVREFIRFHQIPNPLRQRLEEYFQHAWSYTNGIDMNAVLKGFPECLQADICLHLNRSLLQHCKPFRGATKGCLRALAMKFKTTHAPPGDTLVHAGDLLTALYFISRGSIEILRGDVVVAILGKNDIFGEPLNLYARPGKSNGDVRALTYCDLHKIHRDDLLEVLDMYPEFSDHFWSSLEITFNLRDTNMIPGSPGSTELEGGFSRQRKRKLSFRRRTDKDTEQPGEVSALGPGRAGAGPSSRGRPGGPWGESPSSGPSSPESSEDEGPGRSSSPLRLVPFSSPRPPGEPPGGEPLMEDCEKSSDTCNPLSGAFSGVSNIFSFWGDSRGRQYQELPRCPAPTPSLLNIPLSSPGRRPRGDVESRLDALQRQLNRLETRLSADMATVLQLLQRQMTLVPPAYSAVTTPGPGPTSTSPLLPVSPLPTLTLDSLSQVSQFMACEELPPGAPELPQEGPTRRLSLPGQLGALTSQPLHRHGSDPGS
Experiment: cell-based
Settings: (-LOG10(IC50), µM)
assay_metric: log10(IC50) (log10 of the value in µM)
Reminder: these figures are log10 of reported IC50, in µM before transformation.

Record excerpt, results attached:
{"molecule": "CCCCCCCC[N+](C)(CCCCCCCC)CCCCCCCC [Methyltrioctylammonium chloride]", "log10(IC50)": -0.21}
{"molecule": "C=CCNc1nc(NCC=C)nc(N2CCN(C(c3ccc(F)cc3)c3ccc(F)cc3)CC2)n1 [Almitrine dimethanesulfonate]", "log10(IC50)": 0.78}
{"molecule": "CC(C)=CC1C(C(=O)OCN2C(=O)C3=C(CCCC3)C2=O)C1(C)C (centres unmarked) [Tetramethrin]", "log10(IC50)": 1.61}
{"molecule": "CC[C@]12CCCN3CCc4c(n(c5ccccc45)C(=O)C1)[C@@H]32 [(-)-Eburnamonine]", "log10(IC50)": 0.28}
{"molecule": "CCCCCCCCCCCCn1cc[n+](C)c1 [1-Dodecyl-3-methylimidazolium chloride]", "log10(IC50)": 0.46}
{"molecule": "CCC(C)c1cc(C(C)(C)C)c(O)c(C(C)(C)C)c1 (centres unmarked) [4-(Butan-2-yl)-2,6-di-tert-butylphenol]", "log10(IC50)": 0.93}
{"molecule": "CN(C)C(=S)SSC(=S)N(C)C [Bis(dimethylaminothiocarbonyl) disulfide]", "log10(IC50)": 1.34}

query: Any idea what its log10(IC50) is? The molecule is COc1ccnc(C[S+]([O-])c2nc3ccc(OC(F)F)cc3[nH]2)c1OC (centres unmarked) [Pantoprazole sodium]
result: 1.69
